Target: Anti-CD28 Fab (SEQ ID NOs: 696, 697)
Sequence (VH, as listed by the source, chain 1 of 2): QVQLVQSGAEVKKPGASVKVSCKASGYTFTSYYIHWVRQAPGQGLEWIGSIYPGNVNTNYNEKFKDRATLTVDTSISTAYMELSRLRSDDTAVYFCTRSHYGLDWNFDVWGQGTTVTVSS
Sequence (VL, as listed by the source, chain 2 of 2): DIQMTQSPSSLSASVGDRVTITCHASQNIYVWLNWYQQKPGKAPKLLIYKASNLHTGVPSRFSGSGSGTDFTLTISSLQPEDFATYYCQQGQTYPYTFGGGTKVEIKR
Experiment Description: phage binding ELISA, clonal phage on biotinylated anti-CD28 Fab captured on neutravidin plates;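 further: crude clonal phage supernatants added to wells pretreated with CD28 antigen or blocking buffer only, bound phage detected by HRP-linked anti-M13 antibody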
Anti-CD28 Fab signal (phage binding ELISA) by entry:
Value Type: Anti-CD28 Fab signal (phage binding ELISA)

binder="YCAGHAQEYMRKCL (Peptide-87 library clone, tested as clonal phage (peptide fused to pIII of the bacteriophage)) [Phage-1319]" readout_value=0.49
binder="YCEGHIKDYMTKCL (Peptide-87 library clone, tested as clonal phage (peptide fused to pIII of the bacteriophage)) [Phage-1322]" readout_value=0.47
binder="YCEGHLGLYMKKCL (Peptide-87 library clone, tested as clonal phage (peptide fused to pIII of the bacteriophage)) [Phage-1318]" readout_value=0.49
binder="YCDGHDEQYLMKCL (Peptide-87 library clone, tested as clonal phage (peptide fused to pIII of the bacteriophage)) [Phage-1326]" readout_value=0.44
binder="YCEGHMQWYMAKCL (Peptide-87 library clone, tested as clonal phage (peptide fused to pIII of the bacteriophage)) [Phage-1324]" readout_value=0.45
binder="YCEGHVPQYMGKCL (Peptide-87 library clone, tested as clonal phage (peptide fused to pIII of the bacteriophage)) [Phage-1316]" readout_value=0.5
binder="YCEGHLDEYLQKCM (Peptide-87 library clone, tested as clonal phage (peptide fused to pIII of the bacteriophage)) [Phage-1314]" readout_value=0.51
binder="YCDGHSTEYMWKCL (Peptide-87 library clone, tested as clonal phage (peptide fused to pIII of the bacteriophage)) [Phage-1321]" readout_value=0.49
binder="YCEGHAPVYMQKCL (Peptide-87 library clone, tested as clonal phage (peptide fused to pIII of the bacteriophage)) [Phage-1325]" readout_value=0.44
binder="YCAGHIPQYLNKCL (Peptide-87 library clone, tested as clonal phage (peptide fused to pIII of the bacteriophage)) [Phage-1320]" readout_value=0.49
binder="YCDGHAAMYMSKCL (Peptide-87 library clone, tested as clonal phage (peptide fused to pIII of the bacteriophage)) [Phage-1317]" readout_value=0.5
binder="YCAGHDAEYMQKCL (Peptide-87 library clone, tested as clonal phage (peptide fused to pIII of the bacteriophage)) [Phage-1323]" readout_value=0.46
binder="YCAGHTTEYIVKCL (Peptide-87 library clone, tested as clonal phage (peptide fused to pIII of the bacteriophage)) [Phage-1315]" readout_value=0.5
